assay: Volume of distribution at steady state in Sprague-Dawley rat at 2 mg/kg, iv and 5 mg/kg, po; type: ADME, organism-based; settings: in vivo, read-out: Vdss
One threshold, 0.3 L/kg, splits the recorded Vd values: lower ones are Condition met, equal or higher ones are Condition not met.

Request: Dear colleague, could you confirm whether Vd of `CCCCCOC(=O)N1CCN(C(=O)[C@H](CCC(=O)O)NC(=O)c2cc(N3CCC(CN)CC3)nc(-c3ccccc3)n2)CC1` falls below 0.3 L/kg? Thanks.
Result: Condition not met

Request: Same read-out for `CCCCCOC(=O)N1CCN(C(=O)[C@H](CCC(=O)O)NC(=O)c2cc(N3CCC(C(N)=O)CC3)nc(-c3ccccc3)n2)CC1` ?
Result: Condition not met

Request: Quick one: `CCCCCOC(=O)N1CCN(C(=O)[C@H](CCC(=O)O)NC(=O)c2cc(N3CCC(C(=O)N(CC)CC)CC3)nc(-c3ccccc3)n2)CC1`
Result: Condition met

Request: Follow-up item: `CCCCCOC(=O)N1CCN(C(=O)[C@H](CCC(=O)O)NC(=O)c2cc(N3CCC(C(=O)NCC)CC3)nc(-c3ccccc3)n2)CC1`
Result: Condition met

Request: Entry `CCCCCOC(=O)N1CCN(C(=O)[C@H](CCC(=O)O)NC(=O)c2cc(N3CCC(COC)CC3)nc(-c3ccccc3)n2)CC1` please
Result: Condition not met

Request: One more molecule: `CCCCCOC(=O)N1CCN(C(=O)[C@H](CCC(=O)O)NC(=O)c2nc(-c3ccccc3)cc(N3CCC(CN)CC3)n2)CC1`
Result: Condition met

Request: Now give it for `CCCCCOC(=O)N1CCN(C(=O)[C@H](CCC(=O)O)NC(=O)c2cc(N3CCC(CNC)CC3)nc(-c3ccccc3)n2)CC1` too.
Result: Condition not met

Request: Same for `CCCCCOC(=O)N1CCN(C(=O)[C@H](CCC(=O)O)NC(=O)c2cc(N3CCC(CN4CCCC4)CC3)nc(-c3ccccc3)n2)CC1`
Result: Condition not met

Request: Likewise for `CCCCCOC(=O)N1CCN(C(=O)[C@H](CCC(=O)O)NC(=O)c2nc(-c3ccccc3)cc(N3CCC(COC)CC3)n2)CC1` ?
Result: Condition met

Request: What do you get for `CCCCCOC(=O)N1CCN(C(=O)[C@H](CCC(=O)O)NC(=O)c2cc(N3CCC(OCCO)CC3)nc(-c3ccccc3)n2)CC1` ?
Result: Condition not met

Request: Also need `CCCCCOC(=O)N1CCN(C(=O)[C@H](CCC(=O)O)NC(=O)c2cc(N3CCC(C(=O)N4CCCC4)CC3)nc(-c3ccccc3)n2)CC1` , thanks.
Result: Condition met

###

biological target: P2Y purinoceptor 12 (Homo sapiens, UniProt Q9H244); experiment: Ratio of compound IC50 to thienopyrimidine IC50 for P2Y12 receptor in human platelet rich plasma assessed as inhibition of ADP-induced platelet aggregation by light transmission aggregometry
Sequence (Q9H244 whole entry): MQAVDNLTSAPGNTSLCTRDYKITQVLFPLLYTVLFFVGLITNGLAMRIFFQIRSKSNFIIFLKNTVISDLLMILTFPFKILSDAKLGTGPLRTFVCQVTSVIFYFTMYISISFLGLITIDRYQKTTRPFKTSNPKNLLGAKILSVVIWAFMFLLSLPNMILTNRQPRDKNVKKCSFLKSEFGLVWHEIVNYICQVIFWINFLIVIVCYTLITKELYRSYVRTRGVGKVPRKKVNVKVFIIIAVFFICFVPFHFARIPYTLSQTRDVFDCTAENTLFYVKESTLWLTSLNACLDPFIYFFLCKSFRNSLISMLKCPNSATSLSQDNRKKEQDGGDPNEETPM
Provide the reported Ratio IC50 of each item.

Request: Lookup: Ratio IC50 / P2Y purinoceptor 12 (Homo sapiens, UniProt Q9H244) / `CCCCCOC(=O)N1CCN(C(=O)[C@H](CCC(=O)O)NC(=O)c2cc(N3CCC(CN4CCCC4=O)CC3)nc(-c3ccccc3)n2)CC1`
Result: 0.4

Request: Can you handle `CCCCCOC(=O)N1CCN(C(=O)[C@H](CCC(=O)O)NC(=O)c2nc(-c3ccccc3)cc(N3CCC(N4CCCC4)CC3)n2)CC1` next?
Result: 0.4

Request: And the next one, `CCCCOC(=O)N1CCN(C(=O)[C@H](CCC(=O)O)NC(=O)c2cc(N3CCC(C(=O)N4CCCC4)CC3)nc(-c3ccccc3)n2)CC1` ?
Result: 0.08

Request: Same lookup for `CCCCOC(=O)N1CCN(C(=O)[C@H](CCC(=O)O)NC(=O)c2cc(OCCOC)nc(-c3ccccc3)n2)CC1` , please.
Result: 1

Request: What do we get for `CCCCCOC(=O)N1CCN(C(=O)[C@H](CCC(=O)O)NC(=O)c2nc(-c3ccccc3)cc(N3CCC(CCN4CCCC4)CC3)n2)CC1` ?
Result: 0.4

Request: Moving on to the next compound: `CCCCCOC(=O)N1CCN(C(=O)[C@H](CCC(=O)O)NC(=O)c2cc(N3CCC(COCCOC)CC3)nc(-c3ccccc3)n2)CC1`
Result: 0.3

Request: Subsequent entry: `CCCCCOC(=O)N1CCN(C(=O)[C@H](CCC(=O)O)NC(=O)c2cc(NCCOC)nc(-c3ccccc3)n2)CC1`
Result: 0.5

Request: Now give it for `CCCCCOC(=O)N1CCN(C(=O)[C@H](CCC(=O)O)NC(=O)c2cc(NCCCN(C)C)nc(-c3ccccc3)n2)CC1` too.
Result: 0.6

Request: # iterate: `CCCCCOC(=O)N1CCN(C(=O)[C@H](CCC(=O)O)NC(=O)c2cc(N3CCC(C(=O)NCC)CC3)nc(-c3ccccc3)n2)CC1`
Result: 0.2

Request: Try `CCCCCOC(=O)N1CCN(C(=O)[C@H](CCC(=O)O)NC(=O)c2nc(-c3ccccc3)cc(N3CCN(CC(=O)N(C)C)CC3)n2)CC1` next.
Result: 0.8

Request: Please do the same for `CCCCCOC(=O)N1CCN(C(=O)[C@H](CCC(=O)O)NC(=O)c2nc(-c3ccccc3)cc(N3CCN(C)CC3)n2)CC1` as well.
Result: 1.8

Request: Note, next up: `CCCCCOC(=O)N1CCN(C(=O)[C@H](CCC(=O)O)NC(=O)c2cc(N3CCC(C(=O)N(CC)CC)CC3)nc(-c3ccccc3)n2)CC1`
Result: 0.1

Request: What about this compound? `CCCCCOC(=O)N1CCN(C(=O)[C@H](CCC(=O)O)NC(=O)c2nc(-c3ccccc3)cc(N3CCC(CCN)CC3)n2)CC1`
Result: 0.4

Request: Another compound to look at: `CCCCCOC(=O)N1CCN(C(=O)[C@H](CCC(=O)O)NC(=O)c2cc(N3CCC(COC)CC3)nc(-c3ccccc3)n2)CC1`
Result: 0.4

###

Field: Ratio IC50. Provide a value for each of the molecules that follow.
target: P2Y purinoceptor 12 (Homo sapiens, UniProt Q9H244); test: Ratio of compound IC50 to thienopyrimidine IC50 for P2Y12 receptor in human platelet rich plasma assessed as inhibition of ADP-induced platelet aggregation by light transmission aggregometry
Could you keep your reply to the number by itself?

Request: Fill blank: measured Ratio IC50 of the molecule `CCCCCOC(=O)N1CCN(C(=O)[C@H](CCC(=O)O)NC(=O)c2cc(N3CCC(CC(=O)N4CCCC4)CC3)nc(-c3ccccc3)n2)CC1` is ____.
Result: 0.3

Request: Try the molecule `CCCCCOC(=O)N1CCN(C(=O)[C@H](CCC(=O)O)NC(=O)c2nc(-c3ccccc3)cc(N3CCC(C(N)=O)CC3)n2)CC1`
Result: 0.4

Request: Same thing, different molecule: `CCCCOC(=O)N1CCN(C(=O)[C@H](CCC(=O)O)NC(=O)c2cc(OCCN(CC)CC)nc(-c3ccccc3)n2)CC1`
Result: 1.1

Request: Here is the next molecule: `CCCCCOC(=O)N1CCN(C(=O)[C@H](CCC(=O)O)NC(=O)c2nc(-c3ccccc3)cc(N3CCNCC3)n2)CC1`
Result: 1.1

Request: Next entry: `CCCCOC(=O)N1CCN(C(=O)[C@H](CCC(=O)O)NC(=O)c2cc(N3CCC(N4CCCC4)CC3)nc(-c3ccccc3)n2)CC1`
Result: 0.2

Request: // query: `CCCCOC(=O)N1CCN(C(=O)[C@H](CCC(=O)O)NC(=O)c2cc(N3CCC(C(=O)N(CC)CC)CC3)nc(-c3ccccc3)n2)CC1`
Result: 0.1

Request: Please give the result for `CCCCCOC(=O)N1CCN(C(=O)[C@H](CCC(=O)O)NC(=O)c2cc(N3CCC(CCN)CC3)nc(-c3ccccc3)n2)CC1` too.
Result: 0.1

###

molecular target: P2Y purinoceptor 12 (Homo sapiens, UniProt Q9H244); test: Ratio of compound IC50 to thienopyrimidine IC50 for P2Y12 receptor in human platelet rich plasma assessed as inhibition of ADP-induced platelet aggregation by light transmission aggregometry
readoutType: Ratio IC50
Hey, just send me the number, nothing else.

Request: # query: Ratio IC50 | item `CCCCOC(=O)N1CCN(C(=O)[C@H](CCC(=O)O)NC(=O)c2cc(N3CCC(N4CCOCC4)CC3)nc(-c3ccccc3)n2)CC1` | system: P2Y purinoceptor 12 (Homo sapiens, UniProt Q9H244)
Result: 0.2

Request: `CCCCCOC(=O)N1CCN(C(=O)[C@H](CCC(=O)O)NC(=O)c2cc(OCC3CCN(C)CC3)nc(-c3ccccc3)n2)CC1` ?
Result: 0.5

Request: Now consider `CCCCCOC(=O)N1CCN(C(=O)[C@H](CCC(=O)O)NC(=O)c2cc(NC3CCN(C(C)C)CC3)nc(-c3ccccc3)n2)CC1` .
Result: 0.9

Request: Subsequent entry: `CCCCCOC(=O)N1CCN(C(=O)[C@H](CCC(=O)O)NC(=O)c2cc(N3CCC(CC(=O)N(CC)CC)CC3)nc(-c3ccccc3)n2)CC1`
Result: 0.6

Source of measurements: ChEMBL document CHEMBL1156077
